Reported values of Activity for individual entries
- target-entity: ALK tyrosine kinase receptor (Homo sapiens)
- Sequence (Q9UM73 19-1620 limits assumed): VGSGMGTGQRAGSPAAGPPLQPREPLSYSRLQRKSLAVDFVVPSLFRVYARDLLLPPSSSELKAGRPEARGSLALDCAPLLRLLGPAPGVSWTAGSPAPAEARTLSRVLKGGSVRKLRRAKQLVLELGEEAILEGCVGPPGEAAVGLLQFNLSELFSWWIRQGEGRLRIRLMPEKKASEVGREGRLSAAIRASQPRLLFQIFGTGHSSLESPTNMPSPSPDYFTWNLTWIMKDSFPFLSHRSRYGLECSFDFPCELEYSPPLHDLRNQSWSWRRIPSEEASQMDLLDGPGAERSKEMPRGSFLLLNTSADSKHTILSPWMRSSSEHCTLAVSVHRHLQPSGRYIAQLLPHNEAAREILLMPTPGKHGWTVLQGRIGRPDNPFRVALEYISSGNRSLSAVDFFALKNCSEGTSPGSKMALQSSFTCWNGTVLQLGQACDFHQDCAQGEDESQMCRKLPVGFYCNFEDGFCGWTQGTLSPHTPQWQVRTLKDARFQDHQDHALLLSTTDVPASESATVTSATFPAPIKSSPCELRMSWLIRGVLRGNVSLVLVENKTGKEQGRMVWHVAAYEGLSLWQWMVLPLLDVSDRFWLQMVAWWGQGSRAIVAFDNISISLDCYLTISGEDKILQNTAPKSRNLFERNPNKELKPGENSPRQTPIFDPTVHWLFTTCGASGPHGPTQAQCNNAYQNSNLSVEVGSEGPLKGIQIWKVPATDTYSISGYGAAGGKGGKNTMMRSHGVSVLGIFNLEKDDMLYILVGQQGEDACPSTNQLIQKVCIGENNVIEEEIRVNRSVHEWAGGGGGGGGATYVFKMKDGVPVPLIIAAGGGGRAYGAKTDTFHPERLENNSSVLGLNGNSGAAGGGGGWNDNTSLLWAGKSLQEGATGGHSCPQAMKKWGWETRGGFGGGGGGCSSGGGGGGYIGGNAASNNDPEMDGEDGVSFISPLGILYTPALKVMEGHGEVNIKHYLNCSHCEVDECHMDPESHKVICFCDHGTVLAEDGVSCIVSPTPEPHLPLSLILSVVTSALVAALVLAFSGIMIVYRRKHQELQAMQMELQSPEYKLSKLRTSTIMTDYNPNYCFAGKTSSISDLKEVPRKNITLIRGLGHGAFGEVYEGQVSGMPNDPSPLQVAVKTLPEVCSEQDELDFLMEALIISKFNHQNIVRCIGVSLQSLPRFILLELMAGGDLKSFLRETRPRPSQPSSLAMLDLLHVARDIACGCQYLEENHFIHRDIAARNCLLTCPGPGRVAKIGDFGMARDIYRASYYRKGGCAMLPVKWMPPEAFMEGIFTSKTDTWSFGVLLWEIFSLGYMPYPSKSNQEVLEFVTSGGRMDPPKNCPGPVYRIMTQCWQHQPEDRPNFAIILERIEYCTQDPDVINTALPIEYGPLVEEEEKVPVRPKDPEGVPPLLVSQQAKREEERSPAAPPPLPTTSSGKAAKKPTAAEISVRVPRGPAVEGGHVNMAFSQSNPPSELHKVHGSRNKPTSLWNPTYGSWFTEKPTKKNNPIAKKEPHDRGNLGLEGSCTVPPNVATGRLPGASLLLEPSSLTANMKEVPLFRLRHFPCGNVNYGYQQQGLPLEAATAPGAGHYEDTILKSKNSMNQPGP
- test-method-notes: Inhibition of ALK phosphorylation in mouse xenografted with human KARPAS299 cells assessed as p-ALK level at 25 mg/kg, po administered as single dose measured after 24 hrs relative to 2 hrs vehicle-treated tumor
- Format: organism-based
- Design: scale not given: the % may be the effect or the level left
- condition-description: KARPAS-299
Quick reminder: number only, in %, skip the unit.

{"columns": ["molecule", "Activity, %"],
 "data": [
  ["COc1cc(N2CCC(N3CCN(C)CC3)CC2)ccc1Nc1ncc(Cl)c(Nc2ccccc2P(C)(C)=O)n1 [BRIGATINIB]", 39],
  ["COc1cc(N2CCC(N3CCCC3)CC2)ccc1Nc1ncc(Cl)c(Nc2ccccc2P(C)(C)=O)n1", 51]
]}

Would you mind telling me what Activity value was observed for COc1cc(N2CCC(N3CCOCC3)CC2)ccc1Nc1ncc(Cl)c(Nc2ccccc2P(C)(C)=O)n1 ?
50

Would you mind telling me what Activity value was observed for COc1cc(OC2CCN(C)CC2)ccc1Nc1ncc(Cl)c(Nc2ccccc2P(C)(C)=O)n1 ?
160

Would you mind telling me what Activity value was observed for COc1cc(N2CCN(C)CC2)ccc1Nc1ncc(Cl)c(Nc2ccccc2P(C)(C)=O)n1 ?
94

---

- test-method-notes: Half life in CD rat at 10 mg/kg, po by LC-MS/MS analysis
- Assay type: ADME, organism-based
- condition-description: in vivo
readout-label: half-life

{"columns": ["compound", "reported-result"],
 "data": [
  ["COc1cc(N2CCC(N3CCN(C)CC3)CC2)ccc1Nc1ncc(Cl)c(Nc2ccccc2P(C)(C)=O)n1 [BRIGATINIB]", "3.4 h"],
  ["COc1cc(N2CCC(CN3CCC3)CC2)ccc1Nc1ncc(Cl)c(Nc2ccccc2P(C)(C)=O)n1", "3.4 h"],
  ["COc1cc(N2CCC(N3CCOCC3)CC2)ccc1Nc1ncc(Cl)c(Nc2ccccc2P(C)(C)=O)n1", "6.8 h"],
  ["COc1cc(N2CCN(C)CC2)ccc1Nc1ncc(Cl)c(Nc2ccccc2P(C)(C)=O)n1", "12.5 h"],
  ["COc1cc(C2CCN(C)CC2)ccc1Nc1ncc(Cl)c(Nc2ccccc2P(C)(C)=O)n1", "2.5 h"]
]}

Alright, here's another compound for you.
Would you mind telling me what half-life value was observed for COc1cc(N2CCC(N3CCCC3)CC2)ccc1Nc1ncc(Cl)c(Nc2ccccc2P(C)(C)=O)n1 ?
3.7 h

---

- test-method-notes: Cmax in CD rat at 10 mg/kg, po by LC-MS/MS analysis
- Type: ADME, organism-based
- Design: dose 10 mg/kg, route oral
- condition-description: in vivo
readout-label: Cmax (µg/mL)
Quick reminder: number only, in µg/mL, skip the unit.

{"columns": ["smiles-input", "Cmax (µg/mL)"],
 "data": [
  ["COc1cc(N2CCC(CN3CCC3)CC2)ccc1Nc1ncc(Cl)c(Nc2ccccc2P(C)(C)=O)n1", 0.353],
  ["COc1cc(N2CCN(CCO)CC2)ccc1Nc1ncc(Cl)c(Nc2ccccc2P(C)(C)=O)n1", 0.0757],
  ["COc1cc(N2CCC(N3CCCC3)CC2)ccc1Nc1ncc(Cl)c(Nc2ccccc2P(C)(C)=O)n1", 0.109],
  ["COc1cc(OC2CCN(C)CC2)ccc1Nc1ncc(Cl)c(Nc2ccccc2P(C)(C)=O)n1", 0.659],
  ["COc1cc(N2CCC(N3CCOCC3)CC2)ccc1Nc1ncc(Cl)c(Nc2ccccc2P(C)(C)=O)n1", 2.84],
  ["COc1cc(N2CCC(O)CC2)ccc1Nc1ncc(Cl)c(Nc2ccccc2P(C)(C)=O)n1", 0.772]
]}

Would you mind telling me what Cmax value was observed for COc1cc(N2CCC(N3CCN(C)CC3)CC2)ccc1Nc1ncc(Cl)c(Nc2ccccc2P(C)(C)=O)n1 ?
0.305

Would you mind telling me what Cmax value was observed for COc1cc(C2CCN(C)CC2)ccc1Nc1ncc(Cl)c(Nc2ccccc2P(C)(C)=O)n1 ?
0.601

Would you mind telling me what Cmax value was observed for COc1cc(N2CCN(C)CC2)ccc1Nc1ncc(Cl)c(Nc2ccccc2P(C)(C)=O)n1 ?
0.254

---

- test-method-notes: AUC (0 to 24 hrs) in mouse at 10 mg/kg, po by LC-MS/MS analysis
- Type: ADME, organism-based
- Parameters: time < 24 hr, dose 10 mg/kg, route oral
- condition-description: in vivo
Reported values of log10(AUC(0-t) at 24 h) for individual entries
Field: value | Transform: log10 | Quantity: AUC(0-t) at 24 h | Unit: ng·h/mL

// worked examples, log10(AUC(0-t) at 24 h) included
{"columns": ["molecule", "readout-label", "reported-result"],
 "data": [
  ["COc1cc(OC2CCN(C)CC2)ccc1Nc1ncc(Cl)c(Nc2ccccc2P(C)(C)=O)n1", "log10(AUC(0-t) at 24 h)", 2.98],
  ["COc1cc(N2CCN(C)CC2)ccc1Nc1ncc(Cl)c(Nc2ccccc2P(C)(C)=O)n1", "log10(AUC(0-t) at 24 h)", 3.71],
  ["COc1cc(N2CCC(N3CCN(C)CC3)CC2)ccc1Nc1ncc(Cl)c(Nc2ccccc2P(C)(C)=O)n1 [BRIGATINIB]", "log10(AUC(0-t) at 24 h)", 3.76],
  ["COc1cc(N2CCC(N3CCCC3)CC2)ccc1Nc1ncc(Cl)c(Nc2ccccc2P(C)(C)=O)n1", "log10(AUC(0-t) at 24 h)", 3.51],
  ["COc1cc(N2CCC(O)CC2)ccc1Nc1ncc(Cl)c(Nc2ccccc2P(C)(C)=O)n1", "log10(AUC(0-t) at 24 h)", 4.12]
]}

Would you mind telling me what log10(AUC(0-t) at 24 h) value was observed for COc1cc(C2CCN(C)CC2)ccc1Nc1ncc(Cl)c(Nc2ccccc2P(C)(C)=O)n1 ?
3.54

Would you mind telling me what log10(AUC(0-t) at 24 h) value was observed for COc1cc(N2CCC(CN3CCC3)CC2)ccc1Nc1ncc(Cl)c(Nc2ccccc2P(C)(C)=O)n1 ?
3.81

---

- test-method-notes: Cmax in mouse at 10 mg/kg, po by LC-MS/MS analysis
- Format: ADME, organism-based
- Set-up: dose 10 mg/kg, route oral
- condition-description: in vivo
Give criterion met when the value for Cmax is at least 400 ng/mL. Give criterion not met when it is less.

Some solved entries appear below for comparison.
{"columns": ["compound", "group"],
 "data": [
  ["COc1cc(OC2CCN(C)CC2)ccc1Nc1ncc(Cl)c(Nc2ccccc2P(C)(C)=O)n1", "criterion not met"],
  ["COc1cc(C2CCN(C)CC2)ccc1Nc1ncc(Cl)c(Nc2ccccc2P(C)(C)=O)n1", "criterion met"],
  ["COc1cc(N2CCC(N3CCN(C)CC3)CC2)ccc1Nc1ncc(Cl)c(Nc2ccccc2P(C)(C)=O)n1 [BRIGATINIB]", "criterion met"],
  ["COc1cc(N2CCC(O)CC2)ccc1Nc1ncc(Cl)c(Nc2ccccc2P(C)(C)=O)n1", "criterion met"]
]}

Reported Cmax at or above 400 ng/mL? COc1cc(N2CCN(C)CC2)ccc1Nc1ncc(Cl)c(Nc2ccccc2P(C)(C)=O)n1
criterion met

Reported Cmax at or above 400 ng/mL? COc1cc(N2CCC(CN3CCC3)CC2)ccc1Nc1ncc(Cl)c(Nc2ccccc2P(C)(C)=O)n1
criterion met

---

Reported values of Vd for individual entries
- test-method-notes: Volume of distribution at steady state in CD rat at 3 mg/kg, iv by LC-MS/MS analysis
- Type: ADME, organism-based
- condition-description: CD, in vivo, read-out: Vdss
Quick reminder: number only, in L/kg, skip the unit.

Would you mind telling me what Vd value was observed for COc1cc(N2CCC(CN3CCC3)CC2)ccc1Nc1ncc(Cl)c(Nc2ccccc2P(C)(C)=O)n1 ?
1.46

Would you mind telling me what Vd value was observed for COc1cc(N2CCC(N3CCCC3)CC2)ccc1Nc1ncc(Cl)c(Nc2ccccc2P(C)(C)=O)n1 ?
6.61

Would you mind telling me what Vd value was observed for COc1cc(N2CCC(O)CC2)ccc1Nc1ncc(Cl)c(Nc2ccccc2P(C)(C)=O)n1 ?
2.74

---

- test-method-notes: Tmax in CD rat at 10 mg/kg, po by LC-MS/MS analysis
- Assay type: ADME, organism-based
- condition-description: in vivo
Reported values of Tmax for individual entries
// return the numeric value with its unit appended

// worked examples, Tmax included
{"columns": ["molecule", "Tmax"],
 "data": [
  ["COc1cc(N2CCN(C)CC2)ccc1Nc1ncc(Cl)c(Nc2ccccc2P(C)(C)=O)n1", "6 h"],
  ["COc1cc(C2CCN(C)CC2)ccc1Nc1ncc(Cl)c(Nc2ccccc2P(C)(C)=O)n1", "4 h"],
  ["COc1cc(N2CCC(N3CCCC3)CC2)ccc1Nc1ncc(Cl)c(Nc2ccccc2P(C)(C)=O)n1", "4 h"],
  ["COc1cc(N2CCN(CCO)CC2)ccc1Nc1ncc(Cl)c(Nc2ccccc2P(C)(C)=O)n1", "4 h"]
]}

Would you mind telling me what Tmax value was observed for COc1cc(N2CCC(N3CCN(C)CC3)CC2)ccc1Nc1ncc(Cl)c(Nc2ccccc2P(C)(C)=O)n1 [BRIGATINIB] ?
4 h

From: ChEMBL document CHEMBL3822358
